Test system: SK-OV-3
Measurement description: NCI tumour cell line growth inhibition, 48 h
Calls of active or inactive are those of the source. Cut-off read from the data, not from the text of the source: active = GI50 up to about 1.1 µM and inactive = higher.
Reported property: GI50

Task item: For the compound Cc1cccc(C)c1NC(=O)CCCC(=O)C1CCC/C1=N\NC(=O)C(=O)NN (stereo unspecified) , what GI50 is on record?
Reply: > 100 µM (inactive)

Task item: Tell me the measured GI50 of CCOC(=S)SC/C(=N\OC(C)(C)OC)c1ccccc1 , please.
Reply: 43.7 µM (inactive)

Task item: Query (compound): CC(=O)Oc1ccc2c(c1)O/C(=C\c1ccc(N(C)C)cc1)C2=O ; field requested: GI50
Reply: > 100 µM (inactive)

Task item: Which GI50 value belongs to NNC(=O)CS(=O)(=O)Nc1ncccn1 ?
Reply: > 100 µM (inactive)

Task item: Record request: GI50 value, item Oc1c(CN2CCN(c3ccccc3)CC2)cc(Br)c2cccnc12
Reply: 3.21 µM (inactive)

Task item: Give its GI50 value. Item: CC(=O)Nc1cc(CN2CCCCC2)c(O)c2ncccc12
Reply: 36.5 µM (inactive)

====

Test system: DMS-114
Measurement description: NCI tumour cell line growth inhibition, 48 h
Active and inactive are the calls of the source. Cut-off read from the data, not from the text of the source: active = GI50 up to about 1.1 µM and inactive = higher.
Reported property: GI50

Task item: What value of measured GI50 is listed for O=c1cc(-c2ccccc2)[nH]c2c(F)ccc(F)c12 ?
Reply: 28.7 µM (inactive)

Task item: Can you look up the measured GI50 of CNC(=O)N(CCCCC(NC(C)=O)C(=O)NCc1ccccc1)Cc1ccccc1 (stereo not given) for me?
Reply: > 100 µM (inactive)

Task item: Which measured GI50 value corresponds to NC1=NN(c2ccccc2)C(=O)C1C(=O)C(=O)Nc1cccc(C(F)(F)F)c1 (stereo not given) ?
Reply: > 100 µM (inactive)

Task item: Using the record for COc1cc2cc3c4c(cc(OC)c(OC)c4c2cc1OC)CCN3C(=O)CCC(=O)NCCCN(C)C , report its GI50.
Reply: 27.8 µM (inactive)

Task item: Would you kindly share the measured GI50 for O=C1c2ccncc2C(=O)c2c(O)ccc(O)c21 ?
Reply: 3.01 µM (inactive)

Task item: What does the data say about its GI50? Entry: COc1ccc(C2=NOP(c3ccccc3)(c3ccccc3)(c3ccccc3)C2)cc1
Reply: 8.61 µM (inactive)

Task item: Param item = CC(=O)OCC(OC(C)=O)C(OC(C)=O)C(OC(C)=O)C(=O)CNn1c(-c2ccccc2)nc2ccc(Br)cc2c1=O (stereo not given) ; retrieve measured GI50.
Reply: > 100 µM (inactive)

Task item: State the recorded GI50 for this entry: Cc1ccc(C(=O)/C=C/c2ccccc2Cl)cc1
Reply: 18.3 µM (inactive)

Task item: Given CCCC(=O)N[C@H]1CCc2cc(OC)c(OC)c(OC)c2-c2ccc(SC)c(=O)cc21 , state its recorded GI50.
Reply: < 0.01 µM (active)

Task item: Item CC(C)(C)C(=O)N1C(C(=O)O)Cc2ccccc2[C@@H]1Cc1ccccc1 (stereo not given in full) has what recorded GI50?
Reply: > 100 µM (inactive)

Task item: // returns reported GI50 for input O=C(CP(=O)(O)O)c1cccs1
Reply: > 100 µM (inactive)

Task item: What does the record list as GI50 for O=c1oc2c(O)c(O)c(O)c3c(=O)oc4c(O)c(O)cc1c4c23 [FLAVELLAGIC ACID] ?
Reply: 29.7 µM (inactive)

Task item: Dear colleague, I am looking for the recorded GI50 of the following compound: CCN(CC)c1c(C(=O)/C=C/c2ccc(Cl)cc2)c(-c2ccccc2)nn(C)c1=O
Reply: 1.97 µM (inactive)

Task item: // returns reported GI50 for input NC(CCc1nc(-c2cccc([N+](=O)[O-])c2)cs1)C(=O)O (stereo not given)
Reply: > 100 µM (inactive)

Task item: Param item = CC[As](CC)SCC1OC(OC(C)=O)C(OC(C)=O)C(OC(C)=O)C1OC(C)=O (stereo not given) ; retrieve measured GI50.
Reply: 4.81 µM (inactive)

Task item: Please give the measured GI50 for this compound: NC(Cc1ccccc1)C(=O)OCN1C(=O)C2C3C=CC(C2C1=O)C1C2C(=O)N(COC(=O)C(N)Cc4ccccc4)C(=O)C2C31 (stereo not given)
Reply: 20.9 µM (inactive)

Task item: For the compound CC(C)=CCC/C(C)=C/CC/C(C)=C/C(O)c1ccccc1 (stereo not given) , what GI50 is on record?
Reply: 18.3 µM (inactive)

Task item: Quick one: GI50 of COC1=CC(=O)OC(/C=C(C)/C=C/C2=C(C)CCCC2(C)C)C1 (stereo not given) ?
Reply: > 100 µM (inactive)

Task item: Consider the compound shown here: CC(=O)OC1C=CC2CCN3C(=O)c4cc5c(cc4[C@H]1C23)OCO5 (stereo not given in full) What is its recorded GI50?
Reply: > 100 µM (inactive)

Task item: Please report the recorded GI50 for CC(=O)O[C@H]1CCC2[C@@H]3CCC4Nc5c(cnn5-c5ccccc5)C[C@]4(C)C3CC[C@@]21C (stereo not given in full) .
Reply: 11.7 µM (inactive)

Origin of values: ChEMBL document CHEMBL1201862
